experiment_description: NCI Yeast Anticancer Drug Screen. Data for the mlh1 rad18 strain (AID 175)
study_conditions: S. cerevisiae mlh1 rad18 strain growth inhibition; at 50.0 µM; active compounds read high
This is part of a sample that, as a whole, favours compounds with a hit. Of some 79,000 tested, about 15% had one in any assay.
Recorded growth inhibition, one value per entry.
The reply should contain only the number, in %.

O=[N+]([O-])c1cccnc1Sc1ncccn1; -6.2

Problem: GET /values?readout=growth inhibition&item= `CCCCOC(=O)c1ccc(OC(=O)Nc2cccc(Cl)c2)cc1`
Result: 30.1

Problem: GET /values?readout=growth inhibition&item= `C[C@H](C(=O)C12CC3CC(CC(C3)C1)C2)[C@H](O)c1ccccc1`
Result: -18.2

Problem: GET /values?readout=growth inhibition&item= `O=C1NC(=O)C2(CCN(Cc3ccccc3)CC2)N1c1ccccc1`
Result: 3.15

Problem: GET /values?readout=growth inhibition&item= `c1cnc2[nH]cnc2n1`
Result: -10.1
